Test system: OVCAR-5
experiment-description: NCI tumour cell line growth inhibition, 48 h
Active and inactive are the calls of the source. No stated cut-off is given here; in the data, active = GI50 up to about 1.1 µM and inactive = higher.
Hello, when you answer, please use one of the following outcomes: T = active, F = inactive

These solved cases illustrate the format of a correct answer.
[[record]]
compound = "O=[N+]([O-])/C(C(Cl)=C(Cl)Cl)=C(/Br)SCc1ccccc1"
assigned_category = "F"

[[record]]
compound = "N#CC(C#N)=Cc1ccc(C=C2SC3=C(SCCS3)S2)s1"
assigned_category = "F"

[[record]]
compound = "COC(=O)c1ccc(NC(=O)c2cc3c(cc2Br)OCO3)o1"
assigned_category = "F"

[[record]]
compound = "Cc1cc(NS(=O)(=O)c2ccc(NC(=O)c3cccc4c(NNc5ccc(S(=O)(=O)N=C(N)N)cc5)c5ccccc5nc34)cc2)no1"
assigned_category = "F"


Recorded test outcome, item `NCCOc1ccc(/C(=C(/Cl)c2ccccc2)c2ccccc2)cc1`
F

Recorded test outcome, item `COc1ccc(C(N)=O)cc1/N=N/N(C)C`
F

Recorded test outcome, item `O=C(CBr)N1CCC2(CC1)SSC1(CCN(C(=O)CBr)CC1)S2`
F

Recorded test outcome, item `CCc1ccc(CCC(=O)O)nc1`
F

Recorded test outcome, item COC(=O)c1ccccc1C1CN=NC12Cc1ccccc1C2=O (stereo not given)
F

Recorded test outcome, item COC1C(CO)OC(n2c3c(Cl)cccc3c3c4c(c5c6cccc(Cl)c6[nH]c5c32)C(=O)NC4=O)C(O)C1O (stereo not given)
T

====

System: K562
experiment-description: NCI tumour cell line growth inhibition, 48 h
The source made the active and inactive calls. Rule as the data show it: active = GI50 up to about 1.1 µM and inactive = higher.
readout-name: GI50

// each listed compound needs a value for GI50
1. Cc1cc(C)nc(NS(=O)(=O)c2ccc(NC(=O)c3cccc4c(N)c5ccccc5nc34)cc2)n1
2. CC(=O)CC(=O)CCCC(=O)Nc1ccc(Cl)cc1Cl
3. N=C(N)SCc1cn2ccccc2n1
4. C=CC(OC(C)=O)c1ccc(OC(=O)C(C)C)c(OC)c1 (stereo unspecified)
5. N#C/C(N)=C(C#N)/N=C/NCCO
6. CC(=O)O[C@H]1CSC[C@@H](OC(C)=O)C1[N+](=O)[O-] (stereo partly specified)

1. 63.8 µM (inactive)
2. > 100 µM (inactive)
3. > 100 µM (inactive)
4. 3.15 µM (inactive)
5. > 100 µM (inactive)
6. 26.4 µM (inactive)

// each listed compound needs a value for GI50
1. COc1cc2cc(C(=O)N3CC(COS(C)(=O)=O)c4c3cc([N+](=O)[O-])c3ccccc43)[nH]c2c(OC)c1OC (stereo unspecified)
2. N=C(NC(=S)N1CCCCC1)N1CCCCC1
3. O=c1c2cc(Br)ccc2ncn1COCc1ccccc1
4. Cc1nc(O)nc(O)c1/C=C/C(=O)O
5. N=C(CSSCC(=N)NCC12CC3CC(CC(C3)C1)C2)NCC12CC3CC(CC(C3)C1)C2

1: > 100 µM (inactive); 2: > 100 µM (inactive); 3: 54.6 µM (inactive); 4: > 1000 µM (inactive); 5: 11.4 µM (inactive)

====

System: CAKI-1
experiment-description: NCI tumour cell line growth inhibition, 48 h
The source made the active and inactive calls. No stated cut-off is given here; in the data, active = GI50 up to about 1.1 µM and inactive = higher.
Hello, when you answer, please use one of the following outcomes: Yes (active), No (inactive)

[[record]]
compound = "Cc1ccc2c(c1C)-c1c(ccc(C)c1C)C(=O)C2=O"
assigned_category = "Yes"

[[record]]
compound = "COC1OC(COC(=O)NCCCCC(=O)C(F)(F)F)C(O)C(O)C1O (stereo unspecified)"
assigned_category = "No"

[[record]]
compound = "O=C1[C@@H](c2ccc(Cl)cc2)[C@H]2CC=C[C@H]2N1O"
assigned_category = "No"

[[record]]
compound = "COc1cc(C2c3cc4c(cc3[C@@H](Nc3ccc(N)cc3)C3COC(=O)[C@H]23)OCO4)cc(OC)c1O (stereo partly specified)"
assigned_category = "Yes"

[[record]]
compound = "CC(=O)O[C@H]1CSC[C@@H](OC(C)=O)C1[N+](=O)[O-] (stereo partly specified)"
assigned_category = "No"

[[record]]
compound = "CC1(C)CCC2=C(O1)/C(=N\\Nc1ccc(F)cc1)c1ccccc1C2=O"
assigned_category = "No"

[[record]]
compound = "OCC1C(O)C(O)[C@@H]2SCCN12 (stereo partly specified)"
assigned_category = "No"

[[record]]
compound = "Nc1nc(Cl)c(N)c(NCC2(CO)CC2)n1"
assigned_category = "No"


Recorded test outcome, item Cc1coc2c1CC1(C)C(CCC(O)C1C)C2 (stereo unspecified)
No

Recorded test outcome, item `O=C(/C=C/c1ccc(O)c(O)c1)c1ccc(O)cc1O`
No

Recorded test outcome, item COC(=O)c1ccccc1C1CN=NC12Cc1ccccc1C2=O (stereo unspecified)
No

Recorded test outcome, item O=C(O)C1CCCCC1C(=O)Nc1nc2ccccc2[nH]1 (stereo unspecified)
No

Recorded test outcome, item `O=P(O)(O)C(N=C(Nc1ccccc1)Nc1ccccc1)P(=O)(O)O`
No

Recorded test outcome, item O=c1c2cc(O)c(O)cc2oc2cc(O)c(C3OC(CO)C(O)C(O)C3O)c(O)c12 (stereo unspecified)
No

Recorded test outcome, item `O=C1/C(=C/c2ccc(Br)cc2)CCC/C1=C\c1ccc(Br)cc1`
No

Recorded test outcome, item `CCNC1=Nc2ccc(Cl)cc2C(c2ccccc2)=NN1`
No

Hey, just so you know, these numbers are from ChEMBL document CHEMBL1201862.
